# credit: patent US8722616B2

Assign CC50 to each entry below.
# Test system: CEM-SS cells
# TEST METHOD NOTES: in vitro
# Description: Anti-HIV cytopathic effect inhibition assays were conducted as described (Buckheit et al. (1995) Antimicrob. Agents Chemother., 39:2718-2727). In brief, serially diluted peptides were added to a 96-well round bottom microtiter plate in triplicate. CEM-SS cells at a concentration of 2.5×10^3 cells per well and HIV-1IIIB at the appropriate pre-determined titer were sequentially added to the microtiter plate. The cultures were incubated at 5% CO2/37° C. for six days. […]
No end group written: not given here.
Entry rule: numbers only, all in µM.

I would be grateful if you could share the reported CC50 for GWFDIIKKIASEL [Peptide B4] . 38.9

And what about the substance GLKKLLGKLLKKLGKLLLK [GLK-19] ? 25.1

And what about the substance H-GLLGLLGSVVSHVVPAIVGHF-NH2 [Maculatin 1.3, reference compound] ? 8.02

And what about the substance GIWDTIKSMGKVFAGKILQNL-NH2 [Brevinin-2-related, reference compound] ? 7.42

And what about the substance H-GFKDLLKGAAKALVKTVLF-NH2 [Ascaphin-8, reference compound] ? 2.9

----------
# TEST METHOD NOTES: in vitro
# TEST PARAMETERS: human, CEM-SS cells
PROPERTY NAME: CC50 at 144 h (µg/mL)
Entry rule: numbers only, all in µg/mL.

I would be grateful if you could share the reported CC50 at 144 h for `CC[C@H](C)[C@H](NC(=O)[C@H](CCCNC(=N)N)NC(=O)[C@H](CCC(N)=O)NC(=O)[C@@H](NC(=O)[C@@H](NC(=O)[C@H](CCCNC(=N)N)NC(=O)[C@H](CCCCN)NC(=O)[C@H](Cc1ccccc1)NC(=O)CN)[C@@H](C)CC)C(C)C)C(=O)N[C@@H](CCCCN)C(=O)N[C@@H](CC(=O)O)C(=O)N[C@@H](Cc1ccccc1)C(=O)N[C@@H](CC(C)C)C(=O)N[C@@H](CCCNC(=N)N)C(=O)N[C@@H](CC(N)=O)C(=O)N[C@@H](CC(C)C)C(=O)N[C@H](C(N)=O)C(C)C` . 18.7

----------
# Test system: CEM-SS cells
# TEST METHOD NOTES: in vitro
# TEST PARAMETERS: human, 6 days
PROPERTY NAME: CC50

Query CC50 on CEM-SS cells for Cc1cn([C@H]2C[C@H](N=[N+]=[N-])[C@@H](CO)O2)c(=O)[nH]c1=O [AZT, reference compound] > 0.5 µM

----------
# System: CEM-SS cells
# TEST METHOD NOTES: in vitro
# Protocol: Anti-HIV cytopathic effect inhibition assays were conducted as described (Buckheit et al. (1995) Antimicrob. Agents Chemother., 39:2718-2727). In brief, serially diluted peptides were added to a 96-well round bottom microtiter plate in triplicate. CEM-SS cells at a concentration of 2.5×10^3 cells per well and HIV-1IIIB at the appropriate pre-determined titer were sequentially added to the microtiter plate. The cultures were incubated at 5% CO2/37° C. for six days. […]
PROPERTY NAME: CC50 (µM)
Entry rule: numbers only, all in µM.

Query CC50 on CEM-SS cells for `CC[C@H](C)[C@H](NC(=O)[C@H](CCCNC(=N)N)NC(=O)[C@H](CCC(N)=O)NC(=O)[C@@H](NC(=O)[C@@H](NC(=O)[C@H](CCCNC(=N)N)NC(=O)[C@H](CCCCN)NC(=O)[C@H](Cc1ccccc1)NC(=O)CN)[C@@H](C)CC)C(C)C)C(=O)N[C@@H](CCCCN)C(=O)N[C@@H](CC(=O)O)C(=O)N[C@@H](Cc1ccccc1)C(=O)N[C@@H](CC(C)C)C(=O)N[C@@H](CCCNC(=N)N)C(=O)N[C@@H](CC(N)=O)C(=O)N[C@@H](CC(C)C)C(=O)N[C@H](C(N)=O)C(C)C` 10.8
